MEASURE_NAME: melting point

>>> result("CCCCCCCCCCCCOC(=O)c1ccc(O)c([N+](=O)[O-])c1")
"70 °C"
>>> result("CCCc1cc(Cl)c2oc(C(=O)O)c(C)c2c1O")
"200 to 203 °C"
>>> result("O=Cc1nc2cc(F)ccc2s1")
"105 to 107 °C"
>>> result("COc1c(C(O)CNC(C)(C)Cc2ccccc2C)ccc(O)c1O (stereo unspecified)")
"114 °C"
>>> result("CCCCC1(C#N)C2CC3CC(C2)CC1C3 (stereo unspecified)")
"48 to 50 °C"
>>> result("Cc1cc2nc(C)c(S(=O)Cc3ccccc3N(C)C)nc2cc1C (stereo unspecified)")
"83 to 88 °C"
>>> result("CCCCCCO[C@H](C)C(=O)Oc1ccc(C(=O)O)cc1")
"67 to 72 °C"
>>> result("CCCOc1nc2sccc2c(=N)n1CCC")
"61 to 63 °C"
>>> result("Nc1sc2c(c1C(=O)c1ccc3c(c1)Cc1ccccc1-3)CCN(Cc1ccccc1)C2")
"197 to 200 °C"
>>> result("O=C(O)Cn1cc(C(=O)c2ccn3c2CSC3c2cccnc2)c2ccc(-c3ccc(F)cc3)cc21 (stereo unspecified)")
"240 to 249 °C"
>>> result("CCC(CCc1cc(-c2ccccc2)nc2ccccc12)C(=O)N(CC)CC (stereo unspecified)")
"81 °C"
>>> result("CCOC(=O)c1c[nH]c2nc(N3CCN(C(C)=O)CC3)c(F)cc2c1=O")
"290 to 295 °C"
>>> result("CCCCCCCCCCOc1ccc2c(=O)c3cccc(C(=O)O)c3oc2c1CCC(=O)O")
"> 210 °C"
>>> result("CCCn1c(-c2ccccc2)nc2cc(C(=O)O)ccc21")
"223 °C"
>>> result("O=S1NC(Cc2csc3ccccc23)=NO1 (stereo unspecified)")
"134 to 136 °C"
>>> result("Cc1cc(C(O)=S)c(Cl)cc1Cl")
"187 °C"
>>> result("CCNC(=C[N+](=O)[O-])NCCSCc1csc(CN(C)C)n1")
"89 to 90 °C"
>>> result("CC(C)(C#N)OC(=O)Nc1ccc(-c2ncn(-c3ccc(OC(F)(F)F)cc3)n2)cc1")
"172 to 175 °C"
>>> result("COC(=O)C(C)c1noc2cc(F)c(N3C(=O)C(C)=C(C)C3=O)cc12 (stereo unspecified)")
"106 to 107 °C"
>>> result("COC(=O)CCC(C)C1CCC2C3C(O)CC4CC(NC(=O)CNC(=O)OC(C)(C)C)CCC4(C)C3CC(O)C12C (stereo unspecified)")
"110 to 114 °C"
>>> result("COc1ccc(Cn2c(S)nnc2C(N)=O)cc1")
"240 to 242 °C"

###

Recorded melting point values for a group of compounds are listed next.
MEASURE_NAME: melting point

>>> result("c1ccc(CN2CCN(CCCCc3c[nH]c4ccc(-n5cnnc5)cc34)CC2)nc1")
"115 to 118 °C"
>>> result("CCOC(=O)c1cn(CC)c2cc(-c3ccno3)ccc2c1=O")
"243 to 245 °C"
>>> result("Cc1ccc(O)c(NCCCN2CCN(C(c3ccccc3)c3ccccc3)CC2)c1")
"178 to 179 °C"
>>> result("CCOC1(OCC)CCC2(CC1)c1cc(O)c(O)cc1CC(C(=O)O)N2C(=O)OCc1ccccc1 (centres undefined)")
"132 to 133 °C"
>>> result("NC(=O)C(O)c1c(Cl)cccc1Cl (centres undefined)")
"155 to 158 °C"
>>> result("Cc1c(N2CC(F)C(CN)C2)c(F)cc2c(=O)n(N)c(=O)n(C3CC3)c12 (centres undefined)")
"170 to 172 °C"
>>> result("Cc1cc2c(cc1C)OCC(NNc1ncnc3c1ncn3C1OC(CO)C(O)C1O)C2 (centres undefined)")
"170 to 172 °C"
>>> result("CC1=NC(NC(=O)Nc2cccc(C)c2)C(=O)N(CC(=O)C2CCCCCC2)c2c(C)cccc21 (centres undefined)")
"171 to 175 °C"
>>> result("CC12CC(N3CCC(=O)CC3)C(O)CC1CCC1C2CCC2(C)C(O)C(N3CCCCC3)CC12 (centres undefined)")
"205 to 206 °C"
